experiment: Inhibition of rat human chimera TRPV1 channel expressed in CHO cells; assay type: cell-based
endpoint: pIC50
Kindly provide the number alone.

Below are worked cases with known answers.
[[record]]
smiles_code = "CC(C)(C)c1ccc(/C(=C\\C(=O)Nc2ccc3c(c2)OCCO3)c2ccc(F)cc2)cc1"
endpoint = "pIC50"
assay_value = 7.41

[[record]]
smiles_code = "CN(C)C[C@@H]1COc2cc(NC(=O)/C=C/c3ccc(C(C)(C)C)cc3)ccc2O1"
endpoint = "pIC50"
assay_value = 6.18

[[record]]
smiles_code = "CCCCc1ccc(/C=C/C(=O)Nc2ccc3c(c2)OCCO3)cc1"
endpoint = "pIC50"
assay_value = 6.51

[[record]]
smiles_code = "CC(C)c1ccc(/C=C/C(=O)Nc2ccc3c(c2)OCCO3)cc1"
endpoint = "pIC50"
assay_value = 7.01

[[record]]
smiles_code = "CC(C)(C)c1ccc(/C=C/C(=O)Nc2ccc3c(c2)O[C@@H](CO)CO3)cc1"
endpoint = "pIC50"
assay_value = 6.59

[[record]]
smiles_code = "Cc1ccc(C(=CC(=O)Nc2ccc3c(c2)OCCO3)c2ccc(C)cc2)cc1"
endpoint = "pIC50"
assay_value = 6.61

[[record]]
smiles_code = "CC(C)(C)c1ccc(/C=C/C(=O)Nc2ccc3c(c2)OCCO3)c(C2CCCC2)c1"
endpoint = "pIC50"
assay_value = 8.21

[[record]]
smiles_code = "CC(C)(C)c1ccc(/C=C/C(=O)Nc2cccc(C(N)=O)c2)cc1"
endpoint = "pIC50"
assay_value = 7.48

[[record]]
smiles_code = "CC(C)(C)c1ccc(/C(I)=C/C(=O)Nc2ccc3c(c2)OCCO3)cc1"
endpoint = "pIC50"
assay_value = 6.46


We next turn to a different molecule, shown below.
Prompt: Can you share its pIC50? I mean this molecule: O=C(/C=C/c1ccc(C(F)(F)F)nc1N1CCCCC1)Nc1ccc2cccnc2c1
Response: 8.94
